Hey, just so you know, these numbers are from PubChem BioAssay.

test: viability loss in pontine glioma line – cell-based, SU-DIPG-XIII, MIPE5.0, CellTiter-Glo, qHTS, dose response (AID 1347064);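 on AC50: cells exposed to compound for 48 hours before the viability read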
conditionSummary: CellTiter-Glo ATP luminescence
Records with an inconclusive call do not appear. The source made the active and inactive calls. Cut-off not given; nearly all actives show AC50 up to about 23 µM.
measuredMetric: AC50

{"compound": "CC(=O)c1ccc2c(c1)c1cc(C(C)=O)ccc1n2CCNC(C)C", "AC50": "4.68 µM (active)"}
{"compound": "Cc1nc2ccc(C(=O)N3CCC4(CC3)CC(=O)c3c(cnn3C(C)C)C4)cc2[nH]1", "AC50": "inactive"}
{"compound": "COc1nc(N)nc2c1ncn2C1OC(CO)C(O)C1O (stereo not given)", "AC50": "inactive"}
{"compound": "C[C@H](Cc1ccc(O)c(O)c1)[C@@H](C)Cc1ccc(O)c(O)c1", "AC50": "18.6 µM (active)"}
{"compound": "CC1(C)CC(=O)c2c(C(F)(F)F)nn(-c3ccc(C(N)=O)c(NC4CCC(OC(=O)CN)CC4)c3)c2C1 (stereo not given)", "AC50": "0.417 µM (active)"}
{"compound": "Cn1cc(-c2ccc3ncc(Cc4ccc5ncccc5c4)n3n2)cn1", "AC50": "inactive"}

// AC50 lookup, key: "C[C@@H]1CCN(C(=O)CC#N)C[C@@H]1N(C)c1ncnc2[nH]ccc12"
inactive

// AC50 lookup, key: "Nc1cccc(-c2cc3c(Oc4cccc(O)c4)ncnc3[nH]2)c1"
4.68 µM (active)

// AC50 lookup, key: "O=C(O)c1ccc(CCCc2ccc(OCCc3ccc(F)cc3)cc2)o1"
inactive

// AC50 lookup, key: "COCCNCCCn1c(C(=O)CF)c(-c2ccc(C)cc2)c2c(N)ncnc21"
inactive

* * *

test: viability loss in pontine glioma line – cell-based, SU-DIPG-XIII, MIPE4.0, CellTiter-Glo, qHTS, dose response (AID 1347061);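 further: cells exposed to compound for 48 hours before readout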
conditionSummary: CellTiter-Glo ATP luminescence
Results filed as inconclusive are left out. Activity calls are given as the source filed them. The limit is not given here; nearly all actives have AC50 up to about 37 µM.
measuredMetric: AC50

Check out these entries, answers already filled in.
{"entrySmiles": "O=C(O)CCCc1c[nH]c2ccccc12", "testValue": "inactive"}
{"entrySmiles": "CC(C)(C)C(=O)Oc1ccc2c(c1)nc(NC(=O)c1cccc([N+](=O)[O-])c1)n2CCCO", "testValue": "inactive"}
{"entrySmiles": "Cc1ccc(NC(=O)c2cccc(C(C)(C)C#N)c2)cc1Nc1ccc2ncn(C)c(=O)c2c1", "testValue": "4.18 µM (active)"}
{"entrySmiles": "CS(=O)(=O)c1cccc(CNc2nc(Nc3ccc4c(c3)CCC(=O)N4)ncc2C(F)(F)F)c1", "testValue": "18.7 µM (active)"}

Now for the molecule whose AC50 we want.
// AC50 lookup, key: "Clc1ccc2c(N3CCN(CCCN4CCN(c5ccnc6cc(Cl)ccc56)CC4)CC3)ccnc2c1"
inactive

* * *

test: drug combination growth inhibition, ovarian cancer – cell-based, oncology-focused library, rucaparib conditional, profiling panel (AID 1508598)
conditionSummary: patient-derived ovarian cancer cells, CellTiter-Glo viability, 144 h; at 5 µM; OCI-C5x cells; without rucaparib
The source made the active and inactive calls.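 How the source made its calls: active means normalized viability below 100% at a tested concentration; inactive means the rest.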
Could you please pick one outcome from this set? active, inactive

{"entrySmiles": "O=C(Nc1cccc(Cl)c1)Nc1ncc(CCNc2ncnc3ccsc23)s1", "groupLabel": "inactive"}
{"entrySmiles": "CCc1cc(Nc2nccc(-c3c(-c4ccc(OC)c(C(=O)Nc5c(F)cccc5F)c4)nc4ccccn34)n2)c(OC)cc1N1CCC(N2CCN(S(C)(=O)=O)CC2)CC1", "groupLabel": "inactive"}
{"entrySmiles": "Oc1cccc(-c2nc(N3CCOCC3)c3oc4ncccc4c3n2)c1", "groupLabel": "active"}
{"entrySmiles": "COc1cc2nccc(Oc3ccc(NC(=O)Nc4cc(C)on4)c(Cl)c3)c2cc1OC", "groupLabel": "inactive"}
{"entrySmiles": "Cc1cc2c(F)c(Oc3ncnn4cc(OC[C@@H](C)O)c(C)c34)ccc2[nH]1", "groupLabel": "inactive"}

Hi, do you know how "CN(C)Cc1c(C(=O)NCCOc2ccc(C(=O)NO)cc2)oc2ccccc12" came out in this test?
active

Hi, do you know how "O=C(O)[C@H](Cc1c[nH]c2ccccc12)N1C(=O)c2ccccc2C1=O" came out in this test?
inactive

Hi, do you know how "Cc1nc2c(-c3cnc(N)nc3)nc(N3CCOCC3)nc2n1C(C)C" came out in this test?
active

Hi, do you know how "Cc1cnc(-c2ccccc2C(C)C)nc1NCc1ccc(-n2ccnn2)cc1" came out in this test?
inactive

* * *

test: viability loss in pontine glioma line – cell-based, JHH-DIPG-1, MIPE4.0, CellTiter-Glo, qHTS, dose response (AID 1347062);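 on AC50: cells exposed to compound for two days before readout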
conditionSummary: JHH-DIPG-1 viability, CellTiter-Glo ATP luminescence
Records with an inconclusive call do not appear. Activity calls are given as the source filed them. Cut-off not given; nearly all actives show AC50 up to about 27 µM.
Could you please pick one outcome from this set? T for active, F for inactive

Below, 6 molecules whose answers are already recorded.
{"molecule": "CN(C)C/C=C/C(=O)Nc1cc2c(Nc3ccc(F)c(Cl)c3)ncnc2cc1O[C@H]1CCOC1", "groupLabel": "T"}
{"molecule": "O=C1C(CCC(O)c2ccc(F)cc2)C(c2ccc(O)cc2)N1c1ccc(F)cc1 (stereo unspecified)", "groupLabel": "F"}
{"molecule": "Cn1c(CNc2ccc(C(=N)N)cc2)nc2cc(C(=O)N(CCC(=O)O)c3ccccn3)ccc21", "groupLabel": "F"}
{"molecule": "CC(C)NC[C@@H](C(=O)N1CCN(c2ncnc3c2[C@H](C)C[C@H]3O)CC1)c1ccc(Cl)cc1", "groupLabel": "T"}
{"molecule": "O=C(O)C1=CO[C@@H](O[C@@H]2O[C@H](CO)[C@@H](O)[C@H](O)[C@H]2O)[C@@H]2C(CO)=CC[C@H]12", "groupLabel": "F"}
{"molecule": "Cn1cc(CNCC2CCN(c3ncc(C(=O)NO)cn3)CC2)c2ccccc21", "groupLabel": "T"}

Hi, do you know how "NC(=O)Nc1cc(-c2cccc(F)c2)sc1C(=O)N[C@H]1CCCNC1" came out in this test?
T

Hi, do you know how "C/C=C1\NC(=O)[C@H]2CSSCC/C=C\[C@H](CC(=O)N[C@H](C(C)C)C(=O)N2)OC(=O)[C@H](C(C)C)NC1=O" came out in this test?
T

Hi, do you know how "COc1cc2c(cc1OC)CN(CCc1ccc(NC(=O)c3cccc4c(=O)c5cccc(OC)c5[nH]c34)cc1)CC2" came out in this test?
F

Hi, do you know how "CO[C@H]1/C=C/O[C@@]2(C)Oc3c(C)c(O)c4c(O)c(c(/C=N/N5CCN(C)CC5)c(O)c4c3C2=O)NC(=O)/C(C)=C\C=C\[C@H](C)[C@H](O)[C@@H](C)[C@@H](O)[C@@H](C)[C@H](OC(C)=O)[C@@H]1C" came out in this test?
F

Hi, do you know how "CCc1ccc(/C=C2/SC(=S)NC2=O)cc1" came out in this test?
F

Hi, do you know how "CCN(CC)CCNC(=O)c1ccc2nc(-c3ccccc3)c(-c3ccc(CN4CCC(n5c(=O)[nH]c6ccccc65)CC4)cc3)nc2c1" came out in this test?
T

Hi, do you know how "CC1(C)S[C@H]2[C@H](NC(=O)[C@@H](N)c3ccc(O)cc3)C(=O)N2[C@H]1C(=O)O" came out in this test?
T

Hi, do you know how "CC[C@@H]1C(=O)N(C)c2cnc(Nc3ccc(C(=O)NC4CCN(C)CC4)cc3OC)nc2N1C1CCCC1" came out in this test?
T

Hi, do you know how COc1cc2c(cc1OC)C1CC(=O)C(CC(C)C)CN1CC2 (stereo unspecified) came out in this test?
F

Hi, do you know how "c1cc(-c2cnn3cc(-c4ccc(OCCN5CCCCC5)cc4)cnc23)ccn1" came out in this test?
T

Hi, do you know how "CCCCCN(CCC12CC3CC(CC(C3)C1)C2)C(=O)NCCCc1ccncc1" came out in this test?
F

Hi, do you know how "C=CCn1c(=O)c2cnc(Nc3ccc(N4CCN(C)CC4)cc3)nc2n1-c1cccc(C(C)(C)O)n1" came out in this test?
T

Hi, do you know how "Cc1ccc([C@@H]2O[C@H](CO)[C@@H](O)[C@H](O)[C@H]2O)cc1Cc1ccc(-c2ccc(F)cc2)s1" came out in this test?
F

Hi, do you know how "COc1ccnc2[nH]cc(C(=O)C(=O)N3CCN(C(=O)c4ccccc4)C[C@H]3C)c12" came out in this test?
F

Hi, do you know how "Nc1cccc2c1CN([C@H]1CCC(=O)NC1=O)C2=O" came out in this test?
F

Hi, do you know how "Cc1cn2cc(C(=O)N(C)CCO)cc(N[C@@H]3CCOc4cccc(C)c43)c2n1" came out in this test?
F

Hi, do you know how "COC(=O)N1CCN(Cc2cccc(NC(=O)Nc3ccc(C)nc3)c2F)CC1" came out in this test?
F

Hi, do you know how "CC1=C(CO)C(=O)O[C@@H]([C@@H](C)[C@H]2CC[C@H]3[C@@H]4C[C@H]5O[C@]56[C@@H](O)C=CC(=O)[C@]6(C)[C@H]4CC[C@]23C)C1" came out in this test?
T

Hi, do you know how "COc1cc(N2CCN(C)CC2)ccc1Nc1nc(N)c(C(=O)c2c(Cl)cccc2Cl)s1" came out in this test?
F

Hi, do you know how "COc1cc(NC(=O)c2ccc(-c3ccc(Cl)cc3)o2)cc(OC)c1" came out in this test?
T

Hi, do you know how "CCN1C[C@H](C)n2c(c(O)c3c(=O)n(Cc4ccc(F)c(Cl)c4)nc(C(=O)NC)c32)C1=O" came out in this test?
F

Hi, do you know how "C=CC(=O)Nc1cc(NC(=O)c2ccc(C)c(NC(=O)c3ccno3)c2)cc(C(F)(F)F)c1" came out in this test?
T
